System: protocatechuic acid-producing Escherichia coli strain M7032 (pUXPEaLT_tphA2A3BA1_tpaK)
Assay: Production of protocatechuic acid from terephthalic acid salt in jar fermentor culture
Type: cell-based
Settings: 48 hours, disodium terephthalate as 100%
Property label: Ratio of the capacity in production (protocatechuic acid) (%)
Value expressed in %; do not type the unit.

GET /value?item= O=C([O-])c1ccc(C(=O)[O-])cc1.[Na+].[Na+] [Disodium terephthalate, disodium terephthalate, reference compound] &field=Ratio of the capacity in production (protocatechuic acid) returns 100

Form: compound = O=C([O-])c1ccc(C(=O)[O-])cc1.[K+].[K+] [Dipotassium terephthalate, dipotassium terephthalate] ; Ratio of the capacity in production (protocatechuic acid) = 166

Recorded result, O=C([O-])c1ccc(C(=O)[O-])cc1.[K+].[Na+] [1-potassium 4-sodium terephthalate] , Ratio of the capacity in production (protocatechuic acid): 154

Summary for this compound, N.O=C([O-])c1ccc(C(=O)O)cc1.[K+] [1-potassium 4-ammonium terephthalate] : Ratio of the capacity in production (protocatechuic acid) is 142

Attribution: patent US9394549B2
